B1: Probable E3 ubiquitin-protein ligase MID2, residues 191 to 235; numbered along this chain, Q9UJV3 (parent)
chain: RGITCLDHENEKVNMYCVSDDQLICALCKLVGRHRDHQVASLNDR

# Variants of: B1
# EXPERIMENTAL_DETAILS: abundance fitness (aPCA) (normalised: wild type 0, dead -1); higher = more abundant; growth selection in yeast, the domain comes from the species named
# CONDITION_SET: Homo sapiens
ASSAY_READOUT: abundance fitness

Any idea what its abundance fitness is? The variant is RGITCLDHENEKVNMYCVSDDQLICALCKQVGRHRDHQVASLNDR [L30Q]
0.109

Please give the result for RGITCGDHENEKVNMYCVSDDQLICALCKLVGRHRDHQVASLNDR [L6G] too.
0.039

Please give the result for RGITCLDHENEKVNMYCVSDDQLICALCKHVGRHRDHQVASLNDR [L30H] too.
-0.012

Please give the result for RGITCLDHENEKVNMYCVSDDQLICALCKLVGRHRDHQVASLNDC [R45C] too.
0.018

Please give the result for RGITCLDHENEKVNMYCVSDDQLICALCKLVGCHRDHQVASLNDR [R33C] too.
-0.28

Please give the result for RGITCLNHENEKVNMYCVSDDQLICALCKLVGRHRDHQVASLNDR [D7N] too.
-0.107

Please give the result for RGITCLDHENEKVNMYCVSDDQLICALEKLVGRHRDHQVASLNDR [C28E] too.
-0.897

Please give the result for RGITCLDHENQKVNMYCVSDDQLICALCKLVGRHRDHQVASLNDR [E11Q] too.
-0.097

Please give the result for RGITCLDHENEKVGMYCVSDDQLICALCKLVGRHRDHQVASLNDR [N14G] too.
-0.021

Please give the result for RGITCLDHENEKVNMYCVSDDQLICILCKLVGRHRDHQVASLNDR [A26I] too.
-0.621

Please give the result for NGITCLDHENEKVNMYCVSDDQLICALCKLVGRHRDHQVASLNDR [R1N] too.
-0.017

Please give the result for RGITCLDHENEKVNMYCVSDDQLICALCKLVGRHRDHGVASLNDR [Q38G] too.
-0.191

Please give the result for RGITCLDHENEKVNMYCVSDDQLICALCKLVGRHRDHQVASLNDV [R45V] too.
-0.105

Please give the result for RGITCLDHENEKVNMYCVSDDQLICALCKLVGRHRDHQVASLMDR [N43M] too.
-0.252

Please give the result for RGITCFDHENEKVNMYCVSDDQLICALCKLVGRHRDHQVASLNDR [L6F] too.
-0.028

Please give the result for RGITCLDHENEKVNMYCRSDDQLICALCKLVGRHRDHQVASLNDR [V18R] too.
0.056

Please give the result for RGITCLDHENEKVNMYCVSDDQLICVLCKLVGRHRDHQVASLNDR [A26V] too.
-0.174

Please give the result for LGITCLDHENEKVNMYCVSDDQLICALCKLVGRHRDHQVASLNDR [R1L] too.
-0.194

Please give the result for RGITCLDHENEKVNMSCVSDDQLICALCKLVGRHRDHQVASLNDR [Y16S] too.
-0.178

Please give the result for RGITCLDHENEKVNMYCVSDDQLICALCKLVGRHRDMQVASLNDR [H37M] too.
-0.684

Please give the result for RGITCRDHENEKVNMYCVSDDQLICALCKLVGRHRDHQVASLNDR [L6R] too.
0.103

Please give the result for RGITCLDHENEKVNMYGVSDDQLICALCKLVGRHRDHQVASLNDR [C17G] too.
-0.129

Please give the result for RGITCLDHENEKVNMYCVSDDQLICLLCKLVGRHRDHQVASLNDR [A26L] too.
-0.296

Please give the result for RGITCLDHENEKVNCYCVSDDQLICALCKLVGRHRDHQVASLNDR [M15C] too.
0.259

Please give the result for RGITCLDHENEKVNMYCVSDDQLICALCKLVGRHTDHQVASLNDR [R35T] too.
-0.195

Please give the result for RGITCLDHENEKVNMYCVSDDQLICALCNLVGRHRDHQVASLNDR [K29N] too.
0.153

Please give the result for WGITCLDHENEKVNMYCVSDDQLICALCKLVGRHRDHQVASLNDR [R1W] too.
-0.502

Please give the result for RGITCLDHENEKVNMYCVSDDQLICALCKLVGRHRDHYVASLNDR [Q38Y] too.
-0.16

Please give the result for RGITCLDHENEKVNMYCVSDDQLICALCYLVGRHRDHQVASLNDR [K29Y] too.
-0.079

Please give the result for RGITCLDHENEKVNVYCVSDDQLICALCKLVGRHRDHQVASLNDR [M15V] too.
-0.277

Please give the result for RGITCLDHENEKVNMYCVSDDQLICALCKLVGRHRDHQVASANDR [L42A] too.
0.118

Please give the result for RGITCLDHENEKVNMYCVSDDQLICAHCKLVGRHRDHQVASLNDR [L27H] too.
-0.03

Please give the result for RGITCLDHENEKVNMYCVSDDQLICAWCKLVGRHRDHQVASLNDR [L27W] too.
-0.145

Please give the result for RGITCLDHENEKVNMYCCSDDQLICALCKLVGRHRDHQVASLNDR [V18C] too.
0.036

Please give the result for RGITCLDHEPEKVNMYCVSDDQLICALCKLVGRHRDHQVASLNDR [N10P] too.
-0.414

Please give the result for RGITCLDHENEKVNMYCVSDDQLICALCKLVGRHHDHQVASLNDR [R35H] too.
-0.471

Please give the result for RGITCLDHENEKVNMYCVSDDQLICELCKLVGRHRDHQVASLNDR [A26E] too.
0.031

Please give the result for RGITCLDHENEKVNMYCVSYDQLICALCKLVGRHRDHQVASLNDR [D20Y] too.
-1.43

Please give the result for RGITCLDHENEQVNMYCVSDDQLICALCKLVGRHRDHQVASLNDR [K12Q] too.
-0.103

Please give the result for RWITCLDHENEKVNMYCVSDDQLICALCKLVGRHRDHQVASLNDR [G2W] too.
-0.403

Please give the result for RGITCLDHENEKVNMYCVSDDQLICALCKLVGRHRDHQVAYLNDR [S41Y] too.
-0.502

Please give the result for RGITCIDHENEKVNMYCVSDDQLICALCKLVGRHRDHQVASLNDR [L6I] too.
0.16

Please give the result for RGITCCDHENEKVNMYCVSDDQLICALCKLVGRHRDHQVASLNDR [L6C] too.
0.069

Please give the result for RGITCLDHENEKVNMYCVSDDKLICALCKLVGRHRDHQVASLNDR [Q22K] too.
0.05

Please give the result for RGITCLDHENEKVNMTCVSDDQLICALCKLVGRHRDHQVASLNDR [Y16T] too.
-0.392

Please give the result for RGITCLDHENEKVNMYCVSDDQLICALCKLVGRHRDHQYASLNDR [V39Y] too.
-0.335

Please give the result for RGITCLDHENEKVNMYQVSDDQLICALCKLVGRHRDHQVASLNDR [C17Q] too.
-0.369

Please give the result for RGITCLDHENEKVNMYCVSDDQLICALCKLVGRHRDHQVASLNDP [R45P] too.
0.041

Please give the result for RGITCLDHENEKVNMYCVSDDQLICALCKLVGRHMDHQVASLNDR [R35M] too.
-0.024

Please give the result for RGITCLDHENEKVNMYTVSDDQLICALCKLVGRHRDHQVASLNDR [C17T] too.
-0.269

Please give the result for RGITFLDHENEKVNMYCVSDDQLICALCKLVGRHRDHQVASLNDR [C5F] too.
-0.951

Please give the result for RGITCLDHENEKVNMYCVSDDQLICALCKLVGRHRDHQVASNNDR [L42N] too.
0.045

Please give the result for RGITCLDHENEKSNMYCVSDDQLICALCKLVGRHRDHQVASLNDR [V13S] too.
-0.092

Please give the result for RGITCLDHQNEKVNMYCVSDDQLICALCKLVGRHRDHQVASLNDR [E9Q] too.
0.021

Please give the result for RGITCLDHENEKVNMYCVSDYQLICALCKLVGRHRDHQVASLNDR [D21Y] too.
-0.527

Please give the result for RGITCLDHENEKVNMYCVSDDQLIAALCKLVGRHRDHQVASLNDR [C25A] too.
-1.12

Please give the result for RGITCLDHENEKVNMYCVSDDQLICALCKLVGRHRDDQVASLNDR [H37D] too.
-0.274

Please give the result for RGITCLDHENEKVNMYCVSDIQLICALCKLVGRHRDHQVASLNDR [D21I] too.
-0.951

Please give the result for RGITCLDHENEKVNMYCVSDDQLRCALCKLVGRHRDHQVASLNDR [I24R] too.
-0.373

Please give the result for RGITCLDHENEKVNMYCVSDDQLICALCKLVGMHRDHQVASLNDR [R33M] too.
-0.046

Please give the result for RGITCLDHENEKVNMYLVSDDQLICALCKLVGRHRDHQVASLNDR [C17L] too.
-0.775

Please give the result for RGITCLDHENEKVNMYCVSDDQKICALCKLVGRHRDHQVASLNDR [L23K] too.
0.213

Please give the result for RPITCLDHENEKVNMYCVSDDQLICALCKLVGRHRDHQVASLNDR [G2P] too.
-0.222

Please give the result for RGITCLDHENEKVNMYCVSDPQLICALCKLVGRHRDHQVASLNDR [D21P] too.
-0.819

Please give the result for RGITCLDHENEKVNMYCVSDDQNICALCKLVGRHRDHQVASLNDR [L23N] too.
0.352

Please give the result for RGIECLDHENEKVNMYCVSDDQLICALCKLVGRHRDHQVASLNDR [T4E] too.
-0.209

Please give the result for RGITCLDHENWKVNMYCVSDDQLICALCKLVGRHRDHQVASLNDR [E11W] too.
-0.215

Please give the result for RGITCLDHENEKVNMYCVSDDQLICALCKLVGRHRDHQVASMNDR [L42M] too.
-0.031

Please give the result for RGITCLDHENEKVNMYCVSDDQLICALVKLVGRHRDHQVASLNDR [C28V] too.
-1.11

Please give the result for RGITCLDHENEKVNMYCVSDDQLICALCKLVGRERDHQVASLNDR [H34E] too.
-0.368

Please give the result for RGITCLDHENEKVNMCCVSDDQLICALCKLVGRHRDHQVASLNDR [Y16C] too.
-0.176

Please give the result for RGITCLDHENEKVNWYCVSDDQLICALCKLVGRHRDHQVASLNDR [M15W] too.
0.11

Please give the result for RGITCLDHENEKVNMYCVSDDQLICALCGLVGRHRDHQVASLNDR [K29G] too.
0.097

Please give the result for RKITCLDHENEKVNMYCVSDDQLICALCKLVGRHRDHQVASLNDR [G2K] too.
0.042

Please give the result for RRITCLDHENEKVNMYCVSDDQLICALCKLVGRHRDHQVASLNDR [G2R] too.
-0.033

Please give the result for RGITCLDHENEKVNMYCVSDDQLICALCKLVGRHVDHQVASLNDR [R35V] too.
-0.05

Please give the result for RGITCLDHENEKVNMYCVSDDQLICALCKLVGRHRHHQVASLNDR [D36H] too.
-0.146

Please give the result for RGITCLDHENEKVNMYCVSDQQLICALCKLVGRHRDHQVASLNDR [D21Q] too.
-0.132

Please give the result for RGITCLDHENEKVNMYCVSDDQLICALCKKVGRHRDHQVASLNDR [L30K] too.
0.348

Please give the result for RGITCLDHENELVNMYCVSDDQLICALCKLVGRHRDHQVASLNDR [K12L] too.
-0.049

Please give the result for KGITCLDHENEKVNMYCVSDDQLICALCKLVGRHRDHQVASLNDR [R1K] too.
-0.211

Please give the result for RGITCLDHENEKVNMYCVSDDQLICALCKGVGRHRDHQVASLNDR [L30G] too.
0.13

Please give the result for RGVTCLDHENEKVNMYCVSDDQLICALCKLVGRHRDHQVASLNDR [I3V] too.
-0.188

Please give the result for RGITCLDHENEKVNMYCVSDDQLICALCKLVGRHRDHQVASLPDR [N43P] too.
0.062

Please give the result for RGITCLDHENEKVNMYCVSDDQLICALCKFVGRHRDHQVASLNDR [L30F] too.
-0.022

Please give the result for RGITCLDHENEKVNMYCVSDDQLICALCKLVGRHRDHQVANLNDR [S41N] too.
0.1

Please give the result for RGITCLDHENEKVNMYCVSDDQLICALCKLVGRHQDHQVASLNDR [R35Q] too.
-0.11

Please give the result for RGITCLDHENEKVNMYCVSDDQLACALCKLVGRHRDHQVASLNDR [I24A] too.
-0.104

Please give the result for RGITCLDHENEKVNMYCVSDTQLICALCKLVGRHRDHQVASLNDR [D21T] too.
-0.163

Please give the result for RGITCLDHENVKVNMYCVSDDQLICALCKLVGRHRDHQVASLNDR [E11V] too.
-0.519

Please give the result for RGITCLDHENEKVNMYCVSDDQLICALCKTVGRHRDHQVASLNDR [L30T] too.
0.089
